These data points were gathered from ChEMBL document CHEMBL1201862.

System: M14
assay-overview: NCI tumour cell line growth inhibition, 48 h
Calls of active or inactive are those of the source. Cut-off read from the data, not from the text of the source: active = GI50 up to about 1.1 µM and inactive = higher.
Outcomes: yes (1) for active, no (0) for inactive

COc1cc(Cn2c3c(c4c(C(=O)NCCN(C)C)c(O)ccc42)C(=O)c2ccccc2C3=O)cc(OC)c1 : no (0)
O=S1(=O)C(c2ccccc2)C(N2CCCCC2)C1C1CC2c3ccccc3C1c1ccccc12 (stereo not given) : no (0)
O=C(N/C(=C\c1cccc([N+](=O)[O-])c1)c1nc2cc([N+](=O)[O-])ccc2[nH]1)c1ccccc1 : no (0)
Cc1cn(C2CC(SCCO)C(CO)O2)c(=O)[nH]c1=O (stereo not given) : no (0)
O=C1CCCC1C(=O)Nc1ccc2ccccc2c1 (stereo not given) : no (0)
O=C1C(NCCc2ccc(O)c(O)c2)=CC(=O)c2ncccc21 : no (0)
COC(=O)/C=C/N1CC1 : no (0)
CC(=O)Oc1ccc(C2SCc3nc4ccccc4n32)cc1 (stereo not given) : no (0)
N#Cc1ccc(/C=C2\Cc3ccccc3C2=O)cc1 : no (0)
CCOC(=O)c1ccc(NCc2ccc3oc(=O)c(-c4ccccc4)nc3c2)cc1 : no (0)
COc1cc(C2[C@H]3C(=O)N(c4ccc(Cc5ccc(N6C(=O)[C@@H]7ON(c8ccccc8)C(c8cc(OC)c(OC)c(OC)c8)[C@@H]7C6=O)cc5)cc4)C(=O)[C@H]3ON2c2ccccc2)cc(OC)c1OC (stereo not given in full) : no (0)
CC(C)=CCCC1(Sc2ccccc2)C(=O)OCC1C=C(C)C (stereo not given) : no (0)
COc1ccc(/C=C2\C[C@H]3[C@@H]4CCC5=C[C@@H](N6CCCC6)CC[C@]5(C)[C@H]4CC[C@]3(C)[C@H]2O)cc1 : no (0)
N#CSC#CCCC#CSC#N : no (0)
O=C(Nc1ccc(Cl)cc1)c1cc(S(=O)(=O)Nc2n[nH]c(=O)n2-c2ccccc2)c(S)cc1Cl : no (0)
CCN(CC)S(=O)(=O)c1ccc2[nH]c(NC(=O)OC)nc2c1 : no (0)
CN1CCc2cc(N)cc3c2C1Cc1ccc2c(c1-3)OCO2 (stereo not given) : no (0)
COc1ccc2[nH]c(S(=O)(=O)N3CC(CCl)c4ccc(N)cc43)cc2c1 (stereo not given) : yes (1)
C[C@H]1CC[C@H](NC(=O)N(CCCl)N=O)CC1 : no (0)
COc1cccc([C@@]2(O)c3c(ccc(O)c3OC)[C@H]2OC)c1OC : no (0)
Cc1ccc2c(c1)C(C(=O)N[C@@H]1C(=O)N3[C@@H]1SC(C)(C)[C@@H]3C(=O)O)OCCC2 (stereo not given in full) : no (0)
CNC1=CC(=O)C2=C(C1=O)[C@H]1CC[C@]3(C)C(=O)CC[C@H]3[C@@H]1CC2 : no (0)
Cc1c(N2CCN(C)CC2)nc2ccc(Cl)cc2c1-c1ccccc1 : no (0)
O=C1NC(c2ccccc2)(c2ccccc2)C(=O)N1CCCCCCN1C(=O)NC(c2ccccc2)(c2ccccc2)C1=O : no (0)
CCCN1C(=O)CNC(=O)c2[nH]cnc21 : no (0)
COC12OC3CC4(C)C(=CC3OC(OC(C)C1O)C2O)CCC1C4CCC2(C)C(c3ccc(=O)oc3)CCC12O (stereo not given) : yes (1)
C[C@H](OCc1ccccc1)C(=O)N1CCS(=O)(=O)N2CCC[C@H]2C1=O : no (0)
N#C/C(=C\c1ccc(C(O)P(=O)(O)O)cc1)C(N)=O (stereo not given) : no (0)
CC[N+]1(C)CCC(O)(/C=C/c2ccccc2)C(C(=O)/C=C/c2ccccc2)C1 (stereo not given) : no (0)
COC(=O)C1=C(c2ccc(OC)c(OC)c2)OC(c2ccc(OC)c(OC)c2)C1 (stereo not given) : no (0)
OC1OC(c2ccc[nH]2)C(F)(F)C(F)(F)C1(F)F (stereo not given) : no (0)
O=c1nc(N2CCCC2)nc(N2CCCC2)s1 : no (0)
Cc1nn2c(=O)c([N+](=O)[O-])c(/C=C/c3ccco3)nc2s1 : no (0)
COc1c2cc([N+](=O)[O-])cc1CNC(=O)CN1CCOCCOCCN(CCOCCOCC1)CC(=O)NC2 : no (0)
COc1ccc(/C=N/N=C(\N)NO)cc1OC : no (0)
C=CCc1c(O)c2nsnc2c2nsnc12 : no (0)
COc1ccc(/C=C2\CCCC(C(NO)c3ccc(OC)cc3)C2=NO)cc1 (stereo not given) : no (0)
CCc1cc2c(Nc3ccccc3)c3c(nc2s1)CCCC3 : no (0)
Cc1c2ccccc2c(/C=N/NC(=O)CSCC(=O)N/N=C/c2c3ccccc3c(C)c3ccccc23)c2ccccc12 : no (0)
COc1cccc(-c2cc(=O)c3cc(C)c(C)c(C(=O)O)c3o2)c1 : no (0)

* * *

Tested on: SW-620
assay-overview: NCI tumour cell line growth inhibition, 48 h
Activity calls are given as the source filed them. No stated cut-off is given here; in the data, active = GI50 up to about 1.1 µM and inactive = higher.
Labels: active, inactive

CS(=O)(=O)c1ccc(COP(N)(=O)N(CCCl)CCCl)cc1 (centres undefined) : inactive
O=Cc1cc2c(cc1-c1c(C=O)ccc3c1OCO3)OCO2 : inactive
Cc1ccc2[nH]c3c(c2c1)C1CCC(C(C)(C)C)CC1C1C(=O)N(c2ccc4c(c2)OCO4)C(=O)C31 (centres undefined) : inactive
O=C(CSc1nnc(-c2ccc(/N=C\c3ccc(Cl)cc3)cc2)o1)Nc1ccccc1 : inactive
CCOC(=O)c1sc2c(c1OC(=O)c1ccco1)c(=O)n(-c1ccccc1)c(=S)n2-c1ccccc1 : inactive
Nc1cc2c3c(cccc3c1)C(=O)N(CCN1CCN(CCN3C(=O)c4cccc5cc(N)cc(c45)C3=O)CC1)C2=O : inactive
Cc1cc2nc3c(C#N)c(C)c(CCCl)c(Cl)n3c2cc1C : inactive
O=C1NC2C(=O)N(Cc3ccccc3)C(=O)C2N1 (centres undefined) : inactive
CN1C(=O)C(Cl)(C(Cl)(Cl)S(=O)(=O)O)C(=O)c2ccccc21.c1ccncc1 (centres undefined) : inactive
COP(=O)(OC)/C(=N\Nc1ccc([N+](=O)[O-])cc1)NCc1ccccc1 : inactive
CCOC(=O)CCC(NC(=O)c1ccc(Nc2nc3ccc(C(F)(F)F)cc3nc2-c2ccccc2)cc1)C(=O)OCC (centres undefined) : inactive
S=C(N/N=C\C(=N/NC(=S)N1CCCCC1)c1ccccc1)N1CCCCC1 : inactive
Cc1cc(O)nc(NNC(C#N)c2ccccc2O)n1 (centres undefined) : inactive
CN1CC(c2ccccc2)N(CCCCN2CC(c3ccccc3)N(C)CC2c2ccccc2)CC1c1ccccc1 (centres undefined) : inactive
CCN(CC)CCNc1ccc([N+](=O)[O-])c2nc3ccc(OC)cc3c(N)c12 : active
CC(=O)OC1COC(n2c(=S)n(-c3ccccc3)c(=O)c3ccccc32)C(OC(C)=O)C1OC(C)=O (centres undefined) : inactive
COc1ccc(/C=N/N=C(\N)NO)cc1OC : inactive
COc1cc([C@H]2Oc3c(OC)cc(CCCO)cc3[C@@H]2CO)ccc1O [DIHYDRODEHYDRODICONIFERY ALCOHOL] : inactive
CC[C@H](C)C(=O)O[C@H]1C[C@@H](C)C=C2C=C[C@H](C)[C@H](CC[C@@H]3C[C@@H](O)CC(=O)O3)[C@H]21 : inactive

* * *

Tested on: MDA-MB-435
assay-overview: NCI tumour cell line growth inhibition, 48 h
Activity calls are given as the source filed them. Rule as the data show it: active = GI50 up to about 1.1 µM and inactive = higher.
Quick reference: GI50 of the listed items.
metric-name: GI50

O=C1CSC2(CC(/C=C/c3cccc([N+](=O)[O-])c3)=NN2c2cccc(S(=O)(=O)O)c2)N1c1nc2ccccc2s1 (centres undefined) : 18.5 µM (inactive)
CN1CC(c2ccccc2)N(CCCCN2CC(c3ccccc3)N(C)CC2c2ccccc2)CC1c1ccccc1 (centres undefined) : 36.1 µM (inactive)
COc1ccc(/C=C\c2cc(OC)c(OC)c(OC)c2)cc1OCC(=O)O : 1.72 µM (inactive)
COc1cc(CN2CCCCC2)cc2cc(C(=O)O)c(=O)oc12 : > 100 µM (inactive)
COC1CC(OC2C(C)OC(OC3C(C)OC(OC4C(C)OC(O[C@H]5CC[C@@]6(C)C(=CC[C@]7(O)[C@@H]6C[C@@H](OC(C)=O)[C@@]6(C)[C@]7(O)CC[C@@]6(O)C(C)=O)C5)CC4OC)CC3OC)CC2OC)OC(C)C1O (some centres undefined) : > 25 µM (inactive)
CC1=NN(c2cccc(Cl)c2)C(=N/c2nc3ccccc3s2)/C1=C\c1ccccc1O : 33.6 µM (inactive)
COCn1cc(C2=C(C)C(=O)C(C)=C(C)C2=O)cn1 : 19.6 µM (inactive)
O=C1CNc2cc(N3CCN(c4ccccc4)CC3)ccc2N1 : > 100 µM (inactive)
COc1nc(N)c(C#N)c(C#N)c1C#N : > 10 µM (inactive)
